Every entry's value here was drawn from patent US12173018B2.

# System: E. coli AG100A
# method: microbe, parasite or virus in culture
# Assay type: cell-based
# run conditions: Escherichia coli, read-out: MIC E. coli AG100A
Assign MIC to each entry below.

Known MIC results, listed for orientation:
NCCN1CCN(C(=O)N[C@H](C(=O)N[C@H]2Cc3cccc(C(=O)O)c3OB2O)c2ccc(O)c(O)c2Cl)C(=O)C1=O    8 to 16 µg/mL
NCCN1CCN(C(=O)N[C@H](C(=O)N[C@H]2Cc3cccc(C(=O)O)c3OB2O)c2ncc(O)cc2F)C(=O)C1=O    8 to 16 µg/mL
NS(=O)(=O)c1ccc([C@H](NC(=O)N2CCN(CCBr)C(=O)C2=O)C(=O)N[C@H]2Cc3cccc(C(=O)O)c3OB2O)cc1O    8 to 16 µg/mL
CCN1CCN(C(=O)NC(C(=O)N[C@H]2Cc3cccc(C(=O)O)c3OB2O)c2ccc(NS(C)(=O)=O)cn2)C(=O)C1=O (stereo partly drawn)    8 to 16 µg/mL
NS(=O)(=O)c1ccc(C(NC(=O)N2CCN(CCF)C(=O)C2=O)C(=O)N[C@H]2Cc3cccc(C(=O)O)c3OB2O)cc1 (stereo partly drawn)    2 to 4 µg/mL

Read the next record carefully.
Note to self: MIC recorded for CCN1CCN(C(=O)NC(C(=O)N[C@H]2Cc3ccc(F)c(C(=O)O)c3OB2O)c2csc(N)n2)C(=O)C1=O (stereo partly drawn) was 8 to 16 µg/mL

* * *

# System: P. aeruginosa ATCC 27853
# method: Broth microdilution MIC, P. aeruginosa ATCC 27853
# Format: cell-based
# run conditions: Pseudomonas aeruginosa, ATCC27853, read-out: MIC P. aeruginosa ATCC 27853
Assign MIC to each entry below.

Known MIC results, listed for orientation:
O=C(O)CN1CCN(C(=O)NC(C(=O)N[C@H]2Cc3cccc(C(=O)O)c3OB2O)c2ccc(O)c(O)c2Cl)C(=O)C1=O (some centres unmarked) [Example 249]    0.5 to 1 µg/mL
NCCCN1CCN(C(=O)N[C@@H](C(=O)N[C@H]2Cc3cccc(C(=O)O)c3OB2O)c2ncc(O)cc2F)C(=O)C1=O [Example 252]    32 to 64 µg/mL
NS(=O)(=O)NCCN1CCN(C(=O)NC(C(=O)N[C@H]2Cc3ccc(F)c(C(=O)O)c3OB2O)c2ccc(O)c(O)c2Cl)C(=O)C1=O (some centres unmarked) [Example 244]    < 0.25 µg/mL
CCN1C[C@H](CO)N(C(=O)NC(C(=O)N[C@H]2Cc3cccc(C(=O)O)c3OB2O)c2ncc(O)cc2F)C(=O)C1=O (some centres unmarked) [Example 234]    > 128 µg/mL

Working through the 3 compounds below one at a time, give MIC for each.
1. CCN1CCN(C(=O)N[C@@H](C(=O)N[C@H]2Cc3ccc(F)c(C(=O)O)c3OB2O)c2c(F)cc(O)c(O)c2Cl)C(=O)C1=O [Example 251]
2. CNCCN1CCN(C(=O)N[C@@H](C(=O)N[C@H]2Cc3ccc(F)c(C(=O)O)c3OB2O)c2ccc(O)c(O)c2Cl)C(=O)C1=O [Example 242]
3. CCN1C[C@H](CCN)N(C(=O)NC(C(=O)N[C@H]2Cc3cccc(C(=O)O)c3OB2O)c2ncc(O)cc2F)C(=O)C1=O (some centres unmarked) [Example 240]

0.5 to 1 µg/mL
0.5 to 1 µg/mL
> 128 µg/mL

Working through the 4 compounds below one at a time, give MIC for each.
1. CC(=O)NCCN1CCN(C(=O)NC(C(=O)N[C@H]2Cc3ccc(F)c(C(=O)O)c3OB2O)c2ccc(O)c(O)c2Cl)C(=O)C1=O (some centres unmarked) [Example 243]
2. C[C@H]1CN(CCN)C(=O)C(=O)N1C(=O)N[C@@H](C(=O)N[C@H]1Cc2ccc(F)c(C(=O)O)c2OB1O)c1ccc(O)c(O)c1Cl [Example 250]
3. CCN1CC(C)(C)N(C(=O)NC(C(=O)N[C@H]2Cc3cccc(C(=O)O)c3OB2O)c2ncc(O)cc2F)C(=O)C1=O (some centres unmarked) [Example 245]
4. C[C@H]1CN(CCN)C(=O)C(=O)N1C(=O)NC(C(=O)N[C@H]1Cc2cccc(C(=O)O)c2OB1O)c1ccc(O)c(O)c1Cl (some centres unmarked) [Example 248]

1: < 0.25 µg/mL; 2: 0.5 to 1 µg/mL; 3: > 128 µg/mL; 4: 32 to 64 µg/mL
